Values were extracted from patent US10588888B2.

Test system: MDR1
Test: MDR1-MDCK assay, blood-brain-barrier penetration potential
Assay type: in vitro ADME
Conditions: dog, MDCK-MDR1, pH 7.4, A to B, 5 μM, 120 minutes
Protocol: MDR1-MDCK cell monolayers were grown to confluence on collagen-coated, microporous membranes in 12-well assay plates. The permeability assay buffer was Hanks' balanced salt solution containing 10 mM HEPES and 15 mM glucose at a pH of 7.4. The buffer in the receiver chamber also contained 1% bovine serum albumin. […] The flux of lucifer yellow was also measured post-experimentally for each monolayer to ensure no damage was inflicted to the cell monolayers during the flux period. […]
OUTCOME_MEASURE: recovery at 120 min, 5 μM (%)
Answers are plain numbers, in %.

QUERY: Request body: readout recovery at 120 min, 5 μM, system MDR1, query O=C(COc1ccccc1C(=O)NC[C@@H]1CCCO1)Nc1ccc(Br)cc1 . Return the value.
RESULT: 77
